Sourced from patent US20020142347A1

molecular target: FACI53 (Bos taurus, UniProt P07107, A54C); construct: badan (6-bromoacetyl-2-dimethylaminonaphthalene) fluorophore on the introduced Cys-53; made in house; host or cells: E. coli BL21(DE3)pLysS, pET3a vector; experiment: Fluorescence emission change of FACI-53 on titration with CoA and acyl-CoA esters; format: binding, bovine; details: emission at 495 nm
Sequence (P07107 2-87 A54C): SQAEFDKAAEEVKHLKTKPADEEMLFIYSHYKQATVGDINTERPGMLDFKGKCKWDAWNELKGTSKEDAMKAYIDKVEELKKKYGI
value kind: Relative emission of FACI-53 at 495 nm, fold increase (fold)

CCCC(=O)SCCNC(=O)CCNC(=O)[C@H](O)C(C)(C)COP(=O)(O)OP(=O)(O)OC[C@H]1O[C@@H](n2cnc3c(N)ncnc32)[C@H](O)[C@@H]1OP(=O)(O)O [C4:0-CoA] | 2.8

(I) CCCCCCCCCCCCCCCC(=O)SCCNC(=O)CCNC(=O)[C@H](O)C(C)(C)COP(=O)(O)OP(=O)(O)OC[C@H]1O[C@@H](n2cnc3c(N)ncnc32)[C@H](O)[C@@H]1OP(=O)(O)O [C16:0-CoA, palmitoyl-CoA]
(II) CCCCCCCCCCCCCCCCCCCC(=O)SCCNC(=O)CCNC(=O)[C@H](O)C(C)(C)COP(=O)(O)OP(=O)(O)OC[C@H]1O[C@@H](n2cnc3c(N)ncnc32)[C@H](O)[C@@H]1OP(=O)(O)O [C20:0-CoA]
Endpoint returns the identifier whose Relative emission of FACI-53 at 495 nm, fold increase is numerically larger, either I or II . Answer by quoting the chosen item's label.
I
(I: 2.2 fold, II: 0.8 fold)
